Listing: binding signal of selected sequences
# test.target: GST-Nv-NF-kB (Cys allele) (Nematostella vectensis, UniProt E5G601 2-411)
# Sequence: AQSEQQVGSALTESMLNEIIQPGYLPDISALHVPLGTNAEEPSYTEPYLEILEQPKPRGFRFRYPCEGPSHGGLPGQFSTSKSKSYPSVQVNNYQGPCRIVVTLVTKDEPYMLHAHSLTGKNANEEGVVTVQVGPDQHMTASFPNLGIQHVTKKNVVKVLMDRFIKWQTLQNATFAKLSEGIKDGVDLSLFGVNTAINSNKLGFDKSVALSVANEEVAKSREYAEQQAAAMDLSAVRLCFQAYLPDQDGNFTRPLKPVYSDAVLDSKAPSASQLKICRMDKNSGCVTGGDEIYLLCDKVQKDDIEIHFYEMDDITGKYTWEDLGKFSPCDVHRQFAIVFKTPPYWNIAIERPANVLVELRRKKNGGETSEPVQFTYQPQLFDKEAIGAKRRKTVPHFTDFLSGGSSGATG
# protocol.details: protein-binding microarray (PBM); PBM: ~300 nM protein, 6 mM HEPES pH 7.8, 80 mM KCl, 0.5 mM EDTA, 0.5 mM EGTA, 6% glycerol, 35 ng/ul poly-dIdC, 1% milk, 1 h, room temperature; Ap Aiptasia and Nv Nematostella (sea anemones) / Co Capsaspora / Aq Amphimedon (sponge) / Dm Drosophila / Hu human; RHD is the Rel homology domain; high values mean tight binding
# condition.label: dsDNA, one strand shown

| biopolymer.sequence | test.target | binding signal, z-score |
| --- | --- | --- |
| CCGATTAACATCAAGGATTCCCCTGATGTTAATCGGGTCTTGATTCGCTTGACGCTGCTG | GST-Nv-NF-kB (Cys allele) (Nematostella vectensis, UniProt E5G601 2-411) | 10.5 |
| CCGATTAACATCAAGGGACTTCCTGATGTTAATCGGGTCTTGATTCGCTTGACGCTGCTG | GST-Nv-NF-kB (Cys allele) (Nematostella vectensis, UniProt E5G601 2-411) | 7.09 |
| CCGATTAACATCAATTCCCCAGGTGATGTTAATCGGGTCTTGATTCGCTTGACGCTGCTG | GST-Nv-NF-kB (Cys allele) (Nematostella vectensis, UniProt E5G601 2-411) | 5.44 |
| CCGATTAACATCAGTTGGGAAAATGATGTTAATCGGGTCTTGATTCGCTTGACGCTGCTG | GST-Nv-NF-kB (Cys allele) (Nematostella vectensis, UniProt E5G601 2-411) | 3.62 |
| CCGATTAACATCAAGGGGGTTTCTGATGTTAATCGGGTCTTGATTCGCTTGACGCTGCTG | GST-Nv-NF-kB (Cys allele) (Nematostella vectensis, UniProt E5G601 2-411) | 8.37 |
| CCGATTAACATCAAAGATTCCCCTGATGTTAATCGGGTCTTGATTCGCTTGACGCTGCTG | GST-Nv-NF-kB (Cys allele) (Nematostella vectensis, UniProt E5G601 2-411) | 10.5 |
| CCGATTAACATCACTATTCCCCCTGATGTTAATCGGGTCTTGATTCGCTTGACGCTGCTG | GST-Nv-NF-kB (Cys allele) (Nematostella vectensis, UniProt E5G601 2-411) | 6.24 |
| CCGATTAACATCAAAAAGCCCCGTGATGTTAATCGGGTCTTGATTCGCTTGACGCTGCTG | GST-Nv-NF-kB (Cys allele) (Nematostella vectensis, UniProt E5G601 2-411) | 8.2 |
| CCGATTAACATCAGGAAAGGCCCTGATGTTAATCGGGTCTTGATTCGCTTGACGCTGCTG | GST-Nv-NF-kB (Cys allele) (Nematostella vectensis, UniProt E5G601 2-411) | 2.62 |
| CCGATTAACATCAAAACTCCCCTTGATGTTAATCGGGTCTTGATTCGCTTGACGCTGCTG | GST-Nv-NF-kB (Cys allele) (Nematostella vectensis, UniProt E5G601 2-411) | 7.73 |
